# Test system: Wolbachia pipientis
# Protocol description: Anti-Wolbachia Cell-Based Screen
# Type: functional
# Design: scale not given: in the data most compounds retested in dose-response had high values
# Test conditions: 5 µM
Screen size: about 48,000 compounds; about 13,000 (27%) showed an effect of 50% or more. The list shows a part of the results.
Assay readout: Percent Effect (%)
Response body: numeric value in %, unit text excluded.

In the examples that follow, each entry is paired with its recorded Percent Effect.
[
  {
    "Compound": "CS(=O)(=O)N1CCN(CC(O)COc2ccc(F)cc2)CC1 (stereo not drawn)",
    "Measurement units": "%",
    "Percent Effect": -6.942
  },
  {
    "Compound": "CCS(=O)(=O)NCCNC(C)(C)c1nc(C)cs1",
    "Measurement units": "%",
    "Percent Effect": -9.016
  },
  {
    "Compound": "CC(=O)Nc1nc(C(=O)NCCOc2cccc(C)c2)cs1",
    "Measurement units": "%",
    "Percent Effect": 7.237
  },
  {
    "Compound": "CS(=O)(=O)N1CCN(CC(O)COc2ccc(Cl)cc2)CC1 (stereo not drawn)",
    "Measurement units": "%",
    "Percent Effect": 153.2
  }
]

Memo: O=C(Nc1cn[nH]c1)N(CCCO)C1CCc2ccccc21 (stereo not drawn) , reported Percent Effect: -15.52
